test summary: self-splicing fitness, log relative to wild type (ln ratio); higher = more splicing; Tetrahymena group I intron in knt gene, E. coli kanamycin selection, DiMSum; sequences stand for … in CUCUCU…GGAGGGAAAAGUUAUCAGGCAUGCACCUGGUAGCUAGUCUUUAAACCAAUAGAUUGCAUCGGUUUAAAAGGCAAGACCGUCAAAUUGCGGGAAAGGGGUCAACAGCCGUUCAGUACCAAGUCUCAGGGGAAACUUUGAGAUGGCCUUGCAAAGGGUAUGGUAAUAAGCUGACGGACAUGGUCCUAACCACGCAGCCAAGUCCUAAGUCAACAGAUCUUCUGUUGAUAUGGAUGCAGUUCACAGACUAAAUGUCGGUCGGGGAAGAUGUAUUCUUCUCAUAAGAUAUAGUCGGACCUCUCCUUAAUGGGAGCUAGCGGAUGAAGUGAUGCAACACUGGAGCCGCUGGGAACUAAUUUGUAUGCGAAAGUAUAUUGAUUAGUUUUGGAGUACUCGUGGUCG;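 further: selection with 25 µg/mL kanamycin versus none on LB agar overnight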
test context: 37 °C
Here the recorded self-splicing fitness (ln) is given for each entry.
No unit in the answer, please; the number alone is enough.

Known results for sequences:
biopolymer sequence: CCGGAGCAAUAUUACGAGUA
self-splicing fitness (ln): -2
//
biopolymer sequence: UACUAGCAAUAUUACGAAGU
self-splicing fitness (ln): -2.32
//
biopolymer sequence: GUUUAGCAAUAUUACGAAUA
self-splicing fitness (ln): -0.203
//
biopolymer sequence: GUUCAGCAAUAUUACGGAGA
self-splicing fitness (ln): -1.33
//
biopolymer sequence: CGCGAGCAAUAUUACGCAUA
self-splicing fitness (ln): -2.14

Could you share which self-splicing fitness (ln) value was measured for AAUGAGCAAUAUUACGGGCA ?
-1.24

Now consider AGACAGCAAUAUUACGAGUG and answer again.
-1.9

Try this sequence too: CUACAGCAAUAUUACGGGAC
-2.06

###

test summary: self-splicing fitness, log relative to wild type (ln ratio); higher = more splicing; Tetrahymena group I intron in knt gene, E. coli kanamycin selection, DiMSum; sequences stand for … in CUCUCU…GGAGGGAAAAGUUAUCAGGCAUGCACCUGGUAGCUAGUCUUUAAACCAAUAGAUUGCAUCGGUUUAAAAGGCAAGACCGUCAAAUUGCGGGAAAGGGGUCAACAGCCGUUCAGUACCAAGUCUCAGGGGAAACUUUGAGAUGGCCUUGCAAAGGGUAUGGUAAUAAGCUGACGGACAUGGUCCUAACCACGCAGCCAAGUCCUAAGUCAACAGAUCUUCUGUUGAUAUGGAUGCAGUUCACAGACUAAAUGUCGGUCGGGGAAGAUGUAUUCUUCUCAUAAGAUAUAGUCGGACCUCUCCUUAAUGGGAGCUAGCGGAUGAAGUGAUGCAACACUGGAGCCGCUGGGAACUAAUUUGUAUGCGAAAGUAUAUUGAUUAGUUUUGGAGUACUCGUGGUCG
test context: 30 °C
measurement name: self-splicing fitness (ln)
Lab note: record just the number, no unit beside it.

Some solved cases for reference:
biopolymer sequence: AAGUAGCAAUAUUACGAAAG
numeric value: -2.94
--
biopolymer sequence: ACAGAGCAAUAUUACGUCAG
numeric value: -3.02
--
biopolymer sequence: CCCCAGCAAUAUUACGUAAG
numeric value: -3.18
--
biopolymer sequence: UACCAGCAAUAUUACGUUGC
numeric value: -4.31

Form field: reported self-splicing fitness (ln) of CCGUAGCAAUAUUACGUAUG
-0.772

What about this sequence? CAUGAGCAAUAUUACGGGCA
-2.43

Next sequence: UUGAAGCAAUAUUACGGUAC
-2.04
